- system-under-test: CCR2 (Homo sapiens, UniProt P41597)
- Construct: host or cells: THP-1 (human monocytic cell line)
- Sequence (P41597 whole entry): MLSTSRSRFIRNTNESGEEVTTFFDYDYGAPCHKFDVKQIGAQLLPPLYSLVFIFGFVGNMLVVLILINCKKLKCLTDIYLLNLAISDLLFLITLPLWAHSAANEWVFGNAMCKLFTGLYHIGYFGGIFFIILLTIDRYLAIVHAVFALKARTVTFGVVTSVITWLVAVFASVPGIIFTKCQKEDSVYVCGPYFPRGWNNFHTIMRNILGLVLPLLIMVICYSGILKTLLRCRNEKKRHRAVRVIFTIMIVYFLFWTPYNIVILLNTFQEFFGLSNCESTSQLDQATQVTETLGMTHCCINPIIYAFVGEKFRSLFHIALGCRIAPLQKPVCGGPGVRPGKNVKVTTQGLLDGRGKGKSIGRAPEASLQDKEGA
- protocol-details: MCP-1 Receptor Binding Assay in THP-1 Cells
- experimental-parameters: read-out: MCP1B_v3 IC50
pIC50: −log10 of the molar value.
experimental-readout: pIC50

I = COC1COCCC1N[C@@H]1C[C@H]2CN(C(=O)COc3ccccc3)C[C@@]2(C(=O)N2CCc3ncc(C(F)(F)F)cc3C2)C1 (relative stereo)
II = COCCNC(=O)N1C[C@@H]2C[C@@H](NC3CCOCC3OC)C[C@]2(C(=O)N2CCc3ncc(C(F)(F)F)cc3C2)C1 (relative stereo)
III = CCN1C[C@@H]2C[C@@H](NC3CCOCC3OC)C[C@]2(C(=O)N2CCc3ncc(C(F)(F)F)cc3C2)C1 (relative stereo)
IN: Ordering: ascending pIC50. Would you mind listing the labels in the order requested?
OUT: III, II, I
(III: 6.20, II: 6.42, I: 6.89)

* * *

- system-under-test: CCR2 (Homo sapiens, UniProt P41597)
- protocol-details: MCP-1 Receptor Binding Assay in THP-1 Cells
- experimental-parameters: read-out: MCP1B_v3 IC50
pIC50: −log10 of the molar value.
experimental-readout: pIC50

- compound: "COC1COCCC1N[C@@H]1C[C@H]2CN(S(N)(=O)=O)C[C@@]2(C(=O)N2CCc3ncc(C(F)(F)F)cc3C2)C1 (relative stereo) [Example 32]"
  system-under-test: "CCR2 (Homo sapiens, UniProt P41597)"
  experimental-readout: "pIC50"
  measured-result: 6.89
- compound: "CO[C@@H]1COCC[C@H]1N[C@@H]1C[C@H]2CN(C(N)=O)C[C@@]2(C(=O)N2CCc3ncc(C(F)(F)F)cc3C2)C1 (relative stereo) [Example 5]"
  system-under-test: "CCR2 (Homo sapiens, UniProt P41597)"
  experimental-readout: "pIC50"
  measured-result: 5.87
- compound: "COC(=O)CN1C[C@@H]2C[C@@H](NC3CCOCC3OC)C[C@]2(C(=O)N2CCc3ncc(C(F)(F)F)cc3C2)C1 (relative stereo) [Example 107]"
  system-under-test: "CCR2 (Homo sapiens, UniProt P41597)"
  experimental-readout: "pIC50"
  measured-result: 5.96
- compound: "COC1COCCC1N[C@@H]1C[C@H]2CN(C(=O)CCN3CCCCC3)C[C@@]2(C(=O)N2CCc3ncc(C(F)(F)F)cc3C2)C1 (relative stereo) [Example 79]"
  system-under-test: "CCR2 (Homo sapiens, UniProt P41597)"
  experimental-readout: "pIC50"
  measured-result: 6.30
- compound: "COC1COCCC1N[C@@H]1C[C@H]2CN(C(=O)N(C)C)C[C@@]2(C(=O)N2CCc3ncc(C(F)(F)F)cc3C2)C1 (relative stereo) [Example 21]"
  system-under-test: "CCR2 (Homo sapiens, UniProt P41597)"
  experimental-readout: "pIC50"
  measured-result: 6.66
- compound: "COC1COCCC1N[C@@H]1C[C@H]2CN(C(=O)OCc3cccc(C#N)c3)C[C@@]2(C(=O)N2CCc3ncc(C(F)(F)F)cc3C2)C1 (some centres unmarked) [Example 59]"
  system-under-test: "CCR2 (Homo sapiens, UniProt P41597)"
  experimental-readout: "pIC50"
  measured-result: 6.66
- compound: "COCCOC(=O)N1C[C@@H]2C[C@@H](NC3CCOCC3OC)C[C@]2(C(=O)N2CCc3ccc(C(F)(F)F)cc3C2)C1 (relative stereo) [Example 49]"
  system-under-test: "CCR2 (Homo sapiens, UniProt P41597)"
  experimental-readout: "pIC50"
  measured-result: 8.00

A = COC1COCCC1N[C@@H]1C[C@H]2CN(c3ccccc3)C[C@@]2(C(=O)N2CCc3ncc(C(F)(F)F)cc3C2)C1 (relative stereo) [Example 108]
B = COC1COCCC1N[C@@H]1C[C@H]2CN(C(=O)OCCN3CCCC3)C[C@@]2(C(=O)N2CCc3ccc(C(F)(F)F)cc3C2)C1 (relative stereo) [Example 46]
C = COC(=O)N1C[C@@H]2C[C@@H](NC3CCOCC3OC)C[C@]2(C(=O)N2CCc3ncc(C(F)(F)F)cc3C2)C1 (relative stereo) [Example 34]
D = CO[C@@H]1COCC[C@@H]1N[C@@H]1C[C@H]2CN(C(=O)/C=C/c3ccc(C(=O)O)cc3)C[C@@]2(C(=O)N2CCc3ccc(C(F)(F)F)cc3C2)C1 (relative stereo) [Example 89]
IN: Sort by pIC50, descending. Your reply should list the labels following the order given in the request.
OUT: D, B, C, A
(D: 8.00, B: 7.52, C: 7.30, A: 6.92)
